Assay: 28-day repeat-dose toxicity study in rats
Type: in vivo
Conditions: Sprague Dawley, rat, plasma, po; female rats, 75 mg/kg/day; read-out: Cmax at NOAEL
Assay endpoint: Cmax (µg/mL)
All answers are understood in µg/mL, so give the number only.

Indicate the recorded Cmax value for this compound: "CC(C)(OCc1cc(-c2cccc(OC3CCC3)c2)n(-c2ccccc2N2CCC2)n1)C(=O)O"
198

* * *

Experiment: Rat pharmacokinetics, oral gavage
Assay type: in vivo, Sprague-Dawley rats
Conditions: female, Sprague-Dawley, rat, plasma, po, 20 mg/kg, rat PO 20 mg/kg, female, mean; read-out: AUClast
Assay endpoint: AUC(0-t) (µg·h/mL)
Express the result in µg·h/mL but write the number alone.

Output measured AUC(0-t) for this item: "CC(C)(OCc1cc(-c2cccc(OC3CCC3)c2)n(-c2ccccc2N2CCC2)n1)C(=O)O"
885

* * *

Assay: Rat pharmacokinetics, oral gavage
Assay type: in vivo, Sprague-Dawley rats
Conditions: Sprague-Dawley, plasma; rat PO 60 mg/kg, female, mean
Assay endpoint: AUC(0-inf)
Mention the unit after the number when you answer.

Look up AUC(0-inf) of CC(C)(OCc1cc(-c2cccc(OC3CCC3)c2)n(-c2ccccc2N2CCC2)n1)C(=O)O [Compound 1] and report it.
1770 µg·h/mL

* * *

Assay: 28-day repeat-dose toxicity study in rats
Format: in vivo
Details: Sprague Dawley, rat, in vivo; male rats, 28 days oral gavage; read-out: NOAEL
Assay endpoint: NOAEL at 28 days (mg/kg/day)
Enter your answer as a number in mg/kg/day; do not include the unit.

In one line, give reported NOAEL at 28 days of the entry "CC(C)(OCc1cc(-c2cccc(OC3CCC3)c2)n(-c2ccccc2N2CCC2)n1)C(=O)O" .
120

* * *

Assay: Rat pharmacokinetics, oral gavage
Format: in vivo, Sprague-Dawley rats
Conditions: male, Sprague-Dawley, rat, plasma, po, 20 mg/kg, rat PO 20 mg/kg, male, mean; read-out: Cmax
Assay endpoint: Cmax (ng/mL)
Write the number in ng/mL without appending the unit.

Answer with the recorded Cmax of CC(C)(OCc1cc(-c2cccc(OC3CCC3)c2)n(-c2ccccc2N2CCC2)n1)C(=O)O [Compound 1] only.
30600

* * *

Assay: Rat pharmacokinetics, oral gavage
Assay type: in vivo, Sprague-Dawley rats
Conditions: Sprague-Dawley, plasma; rat PO 250 mg/kg, female, mean
Where a name gives a salt, the structure may show the parent alone.
Assay endpoint: AUC(0-inf) (µg·h/mL)
Return type: number; implicit unit µg·h/mL.

Note down AUC(0-inf) recorded for CC(C)(OCc1cc(-c2cccc(OC3CCC3)c2)n(-c2ccccc2N2CCC2)n1)C(=O)O [Compound 1 tris salt]
16300

* * *

Test: Rat pharmacokinetics, oral gavage
Type: in vivo, Sprague-Dawley rats
Conditions: female, Sprague-Dawley, rat, plasma, po, 75 mg/kg, rat PO 75 mg/kg, female, mean; read-out: Tmax
Where a name gives a salt, the structure may show the parent alone.
Assay endpoint: Tmax
Form entry: enter the amount, then its unit.

Query Tmax for CC(C)(OCc1cc(-c2cccc(OC3CCC3)c2)n(-c2ccccc2N2CCC2)n1)C(=O)O [Compound 1 tris salt]
5.33 h

* * *

Test: Rat pharmacokinetics, oral gavage
Type: in vivo, Sprague-Dawley rats
Conditions: Sprague-Dawley, plasma; rat PO 20 mg/kg, female, mean; read-out: MRTInf—obs
Assay endpoint: MRT inf (h)
The answer is to be given in h; state only the numeric part.

Quick one: give measured MRT inf for CC(C)(OCc1cc(-c2cccc(OC3CCC3)c2)n(-c2ccccc2N2CCC2)n1)C(=O)O [Compound 1]
10

* * *

Test: 28-day repeat-dose toxicity study in rats
Type: in vivo
Conditions: Sprague Dawley, rat, plasma, po; female rats, 75 mg/kg/day; read-out: AUC0-24 at NOAEL
Assay endpoint: AUC(0-t) (µg·h/mL)
// note: answer is a bare numeric in µg·h/mL

Using known records, supply AUC(0-t) for "CC(C)(OCc1cc(-c2cccc(OC3CCC3)c2)n(-c2ccccc2N2CCC2)n1)C(=O)O"
3230

* * *

Assay: Kinetic solubility in biorelevant media
Assay type: physicochemical
Conditions: fasted-state simulated intestinal fluid (FaSSIF), thermodynamic from solid; FaSSIF #2 pH 6.5, room temperature, t = 24 hours
Where a name gives a salt, the structure may show the parent alone.
Assay endpoint: solubility at 24 h (µg/mL)
Express your answer in µg/mL, writing the number without its unit.

Please indicate solubility at 24 h recorded for CC(C)(OCc1cc(-c2cccc(OC3CCC3)c2)n(-c2ccccc2N2CCC2)n1)C(=O)O [tris salt Form B]
733

* * *

Test: Rat pharmacokinetics, oral gavage
Format: in vivo, Sprague-Dawley rats
Conditions: Sprague-Dawley, plasma; rat PO 60 mg/kg, male, mean; read-out: MRTInf—obs
Assay endpoint: MRT inf (h)
Report the value in h with no unit label.

Consider the compound "CC(C)(OCc1cc(-c2cccc(OC3CCC3)c2)n(-c2ccccc2N2CCC2)n1)C(=O)O" . State its measured MRT inf.
5.33

* * *

Assay: Rat pharmacokinetics, oral gavage
Format: in vivo, Sprague-Dawley rats
Settings: Sprague-Dawley, plasma; rat PO 20 mg/kg, female, mean
Assay endpoint: AUC(0-inf)
Answer by giving the amount and then stating its unit.

Query AUC(0-inf) for "CC(C)(OCc1cc(-c2cccc(OC3CCC3)c2)n(-c2ccccc2N2CCC2)n1)C(=O)O"
991 µg·h/mL

* * *

Assay: Rat pharmacokinetics, oral gavage
Type: in vivo, Sprague-Dawley rats
Details: Sprague-Dawley, plasma; rat PO 25 mg/kg, male, mean; read-out: MRTInf—obs
Counter-ions that a name gives are not always drawn.
Assay endpoint: MRT inf (h)
Use h as the unit, but write only the number.

Report MRT inf for CC(C)(OCc1cc(-c2cccc(OC3CCC3)c2)n(-c2ccccc2N2CCC2)n1)C(=O)O [Compound 1 tris salt]
6.1
